# TGT: N-terminally GST-tagged human full length recombinant Mps-1 kinase (Homo sapiens, UniProt P33981)
# Construct: N-terminally GST-tagged human full length recombinant Mps-1 kinase; purchased Invitrogen, Karslruhe, Germany PV4071
# Sequence (P33981 whole entry): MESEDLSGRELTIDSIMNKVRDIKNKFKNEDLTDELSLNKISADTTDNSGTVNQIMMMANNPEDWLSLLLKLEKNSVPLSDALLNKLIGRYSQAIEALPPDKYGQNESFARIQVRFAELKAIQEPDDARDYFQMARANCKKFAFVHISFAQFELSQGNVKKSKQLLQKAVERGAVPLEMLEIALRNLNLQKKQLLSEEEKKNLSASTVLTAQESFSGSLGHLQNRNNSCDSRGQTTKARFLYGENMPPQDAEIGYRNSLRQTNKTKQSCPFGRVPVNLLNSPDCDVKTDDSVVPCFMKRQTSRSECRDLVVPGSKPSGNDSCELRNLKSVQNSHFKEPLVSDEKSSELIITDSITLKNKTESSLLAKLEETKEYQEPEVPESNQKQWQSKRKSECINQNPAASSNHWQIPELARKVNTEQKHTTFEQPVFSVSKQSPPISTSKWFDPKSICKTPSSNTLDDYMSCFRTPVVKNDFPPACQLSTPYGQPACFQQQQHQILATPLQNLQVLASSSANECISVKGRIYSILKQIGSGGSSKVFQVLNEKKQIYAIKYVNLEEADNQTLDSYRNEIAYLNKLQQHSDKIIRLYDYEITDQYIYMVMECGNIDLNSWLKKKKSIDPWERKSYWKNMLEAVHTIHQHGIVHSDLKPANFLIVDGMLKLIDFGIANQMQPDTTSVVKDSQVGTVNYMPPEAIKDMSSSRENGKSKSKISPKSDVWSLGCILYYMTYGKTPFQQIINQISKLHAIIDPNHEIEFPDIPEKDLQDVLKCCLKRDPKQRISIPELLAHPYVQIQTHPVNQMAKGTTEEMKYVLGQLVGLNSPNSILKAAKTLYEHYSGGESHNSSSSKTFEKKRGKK
# ASSAY: Mps-1 kinase assay (TR-FRET)
# Format: biochemical
# TEST CONTEXT: Mps1 IC50 [nM], 10 μM ATP, 1 μM peptide substrate, 60 min at 22° C.
# if measured IC50 < 0.8 nM: T  # else: F

Determine whether this molecule shows IC50 lower than 0.8 nM (ties excluded): `FC(F)(F)CCNc1cc(-c2ccncc2)nn2c(-c3ccc(-c4cnc(C5CC5)[nH]4)cc3)cnc12` F

I wonder whether `Cc1ccc(F)c(Oc2cc(NCCC(F)(F)F)c3ncc(-c4ccc(C(=O)NC5CC5)c(C)c4)n3n2)c1` has IC50 below 0.8 nM. Can you tell? T

Does this molecule meet the criterion IC50 < 0.8 nM? `Cc1cc(-c2cnc3c(NCCC(F)(F)F)cc(Nc4cccc(F)c4F)nn23)ccc1C(=O)NC1CC1` T

I'd appreciate it if you could check whether `NS(=O)(=O)CCNc1cc(Cl)nn2c(-c3ccc(C(=O)NC4CC4)cc3)cnc12` has IC50 smaller than 0.8 nM. F

Strictly below 0.8 nM in IC50? `Cc1cc(-c2cnc3c(NCC(C)C)cc(-c4ccnn4C)nn23)ccc1C(=O)NC1CC1` F
